The reader will find reported melting point values listed item by item below.
measure: melting point

INSERT INTO measurements (smiles_data, observed_value) VALUES
  ('COCCOc1ccc(F)c2c(=O)c(-c3ccc(OC)cc3)c[nH]c12', '142 to 144 °C'),
  ('CCCOc1ccc(F)c2c(=O)c(-c3ccc(OC)cc3O)c[nH]c12', '208 to 209 °C'),
  ('CCCOc1ccc(F)c2c(=O)c(-c3ccc(F)cc3)c(C)[nH]c12', '196 to 197 °C'),
  ('CCCOc1ccc(F)c2c(=O)c(-c3ccc(OC(F)(F)F)cc3)c(C(F)(F)F)[nH]c12', '143 to 144 °C'),
  ('CCCOc1ccc(F)c2c(=O)c(-c3ccsc3CO)c[nH]c12', '181 to 184 °C'),
  ('COc1ccc(-c2c[nH]c3c(OC(C)(C)C)ccc(F)c3c2=O)cc1', '206 to 208 °C'),
  ('CCCOc1ccc(F)c2c(=O)c(-c3ccc(OC(F)(F)F)cc3)c[nH]c12', '212 to 214 °C'),
  ('CCCOc1ccc(F)c2c(=O)c(-c3ccc(OC)cc3OC)c[nH]c12', '116 to 118 °C'),
  ('COc1ccc(-c2c[nH]c3c(-c4ccsc4)ccc(F)c3c2=O)cc1', '183 to 184 °C');

====

The reader will find reported melting point values listed item by item below.
measure: melting point

INSERT INTO measurements (compound, observed_value) VALUES
  ('CCCOc1ccc(F)c2c(=O)c(-c3ccc(OCC)cc3OC)c[nH]c12 [Example 19]', '118 to 120 °C'),
  ('CCCOc1ccc(F)c2c(=O)c(-c3ccoc3)c[nH]c12 [Example 1]', '214 to 215 °C'),
  ('CCCOc1ccc(F)c2c(=O)c(-c3ccc(OC)cc3)cn(CC3CC3)c12 [Example 94]', '60 to 62 °C'),
  ('CCn1cc(-c2ccc(OC)cc2)c(=O)c2c(F)ccc(OCC3CC3)c21 [Example 66]', '150 to 152 °C'),
  ('CCCOc1ccc(F)c2c(=O)c(-c3cccnc3)c(C)[nH]c12 [Example 68]', '190 to 192 °C'),
  ('CCCOc1ccc(F)c2c(=O)c(-c3ccc(OC)cc3)cn(C)c12 [Example 91]', '147 to 148 °C'),
  ('COc1ccc(-c2c[nH]c3c(OC4CCCC4)ccc(Br)c3c2=O)cc1 [Example 104]', '213 to 215 °C'),
  ('CCCOc1ccc(F)c2c(=O)c(-c3ccncc3)c(C)[nH]c12 [Example 69]', '265 to 266 °C'),
  ('CCCOc1ccc(F)c2c(=O)c(-c3cccs3)c(C(F)(F)F)[nH]c12 [Example 85]', '149 to 150 °C'),
  ('COc1ccc(-c2c[nH]c3c(OCC4CCC4)ccc(F)c3c2=O)cc1 [Example 41]', '193 to 194 °C'),
  ('CCCOc1ccc(F)c2c(=O)c(-c3ccc(OC)cc3)cn(CC)c12 [Example 92]', '123 to 125 °C'),
  ('CCOc1ccc(F)c2c(=O)c(-c3ccc(OC)cc3)c[nH]c12 [Example 11]', '155 to 156 °C'),
  ('CCCN(C)c1ccc(F)c2c(=O)c(-c3ccc(OC)cc3)c[nH]c12 [Example 30]', '145 to 146 °C'),
  ('CCCOc1ccc(F)c2c(=O)c(-c3ccc(OCC)cc3)c[nH]c12 [Example 33]', '203 to 205 °C'),
  ('CCCOc1ccc(F)c2c(=O)c(-c3ccc(OC)cc3)c(C(F)(F)F)[nH]c12 [Example 77]', '170 to 171 °C'),
  ('CCCOc1ccc(F)c2c(=O)c(-c3ccc(OCC)c(F)c3)c[nH]c12 [Example 50]', '176 to 177 °C'),
  ('CCCOc1ccc(F)c2c(=O)c(-c3ccc(C(=O)N4CCCC4)cc3)c[nH]c12 [Example 56]', '236 to 237 °C'),
  ('COc1ccc(-c2c[nH]c3c(OCCCC(F)(F)F)ccc(F)c3c2=O)cc1 [Example 31]', '171 to 172 °C'),
  ('COc1ccc(-c2c[nH]c3c(OCC4CC4)ccc(F)c3c2=O)cc1 [Example 24]', '190 to 191 °C'),
  ('CCCOc1ccc(F)c2c(=O)c(-c3cccs3)c[nH]c12 [Example 59]', '211 to 213 °C'),
  ('CCCOc1ccc(F)c2c(=O)c(-c3ccco3)c(C(F)(F)F)[nH]c12 [Example 78]', '134 to 136 °C'),
  ('CCCOc1ccc(F)c2c(=O)c(-c3ccc(O)cc3)c[nH]c12 [Example 95]', '271 to 272 °C'),
  ('COc1ccc(-c2c[nH]c3c(OCCCNS(C)(=O)=O)ccc(F)c3c2=O)cc1 [Example 27]', '120 to 121 °C');

The reported numbers originate from patent US20160304461A1.
